Where a name gives a salt, the structure may show the parent alone.
Reported pIC50 values, HIV-1 integrase (Human immunodeficiency virus type 1 group M subtype B, UniProt P12497).
Recall that pIC50 is obtained by taking minus log10 of the concentration measured in molar.

Worked cases, answers included:
COCc1nc(C(O)=CC(=O)c2ccc(Cc3ccc(F)cc3)o2)n[nH]1 [I-97]; 5.77
O=C(C=C(O)c1nc[nH]n1)c1ccc(C(O)c2ccc(F)cc2)o1 (centres unmarked) [I-94]; 5.31
O=C(C=C(O)c1nc[nH]n1)c1ccc(Sc2ccc(F)cc2)o1 [I-68]; 6.00
CCc1nc(C(O)=CC(=O)c2ccc(Cc3ccc(F)cc3)o2)n[nH]1 [I-98]; 5.87
O=C(C=C(O)c1nc[nH]n1)c1ccc(Cc2ccsc2Cl)o1 [I-91]; 5.75
O=C(C=C(O)c1nc[nH]n1)c1cc(Cl)c(Cc2ccc(F)cc2)o1 [I-86]; 5.84
Cc1cc(Cc2ccc(F)cc2)oc1C(=O)C=C(O)c1nc[nH]n1 [I-61]; 5.68
O=C(O)C(O)=CC(=O)c1ccc(Cc2ccc(F)cc2)o1 [I-54]; 6.08

Task item: For the record Cc1nc(C(O)=CC(=O)c2ccc(Cc3ccc(F)cc3)o2)cs1 [I-96] , what value of pIC50 is listed for HIV-1 integrase (Human immunodeficiency virus type 1 group M subtype B, UniProt P12497)?
Reply: 5.61

Task item: Test system HIV-1 integrase (Human immunodeficiency virus type 1 group M subtype B, UniProt P12497); read-out pIC50; what value for O=C(C=C(O)c1ncc[nH]1)c1ccc(Cc2ccc(F)cc2)o1 [I-101, hydrochloride] ?
Reply: 5.77

Task item: What measured pIC50 is associated with CCCc1nc(C(O)=CC(=O)c2ccc(Cc3ccc(F)cc3)o2)n[nH]1 [I-112] on HIV-1 integrase (Human immunodeficiency virus type 1 group M subtype B, UniProt P12497)?
Reply: 5.77

Task item: GET /values?readout=pIC50&system=HIV-1 integrase (Human immunodeficiency virus type 1 group M subtype B, UniProt P12497)&item= Cn1ccnc1C(O)=CC(=O)c1ccc(Cc2ccc(F)cc2)o1 [I-100]
Reply: 5.31

Task item: Notebook entry, HIV-1 integrase (Human immunodeficiency virus type 1 group M subtype B, UniProt P12497) assay: pIC50 of O=C(/C=C(\O)c1nc[nH]n1)c1cc(C(=O)O)n(Cc2ccccc2)c1 [I-2] = ?
Reply: 5.53

Task item: Checklist item: pIC50 tested on HIV-1 integrase (Human immunodeficiency virus type 1 group M subtype B, UniProt P12497), entry Cc1nc(C(O)=CC(=O)c2ccc(Cc3ccc(F)cc3)o2)n[nH]1 [I-60] , value?
Reply: 5.68

Task item: Item: CC(C)c1nc(C(O)=CC(=O)c2ccc(Cc3ccc(F)cc3)o2)n[nH]1 [I-99] Test system: HIV-1 integrase (Human immunodeficiency virus type 1 group M subtype B, UniProt P12497) Read-out: pIC50 Value: ?
Reply: 5.73
